assay: Apparent permeability in human Caco-2 cells; type: ADME, cell-based
Metric: Papp (×10⁻⁶ cm/s)
Provide the reading as a plain figure in ×10⁻⁶ cm/s.

Query string: If you can, please state the reported Papp value of C=CC(=O)N1CC2(CC(n3nc(-c4ccc5c(cnn5C)c4)c(-c4c(Cl)c(C)cc5[nH]ncc45)c3C)C2)C1 .
Result string: 6.78

====

test: Volume of distribution at steady state in mouse at 1 mg/kg, iv measured upto 24 hrs by LC-MS/MS method; assay type: ADME, organism-based; conditions: in vivo, read-out: Vdss
Metric: Vd (L/kg)
# unit: L/kg | format: bare number

Query string: Look up Vd: C=CC(=O)N1CC2(CC(n3nc(-c4ccc5c(cnn5C)c4)c(-c4c(Cl)c(C)cc5[nH]ncc45)c3C)C2)C1
Result string: 5.9

====

assay: Tmax in Beagle dog at 15 mg/kg, po measured upto 24 hrs by LC-MS/MS method; format: ADME, organism-based, Canis lupus familiaris; conditions: in vivo
Metric: Tmax (h)
API: value field is a number in h; no unit string.

Query string: // query Tmax value for entry C=CC(=O)N1CC2(CC(n3nc(-c4ccc5c(cnn5C)c4)c(-c4c(Cl)c(C)cc5[nH]ncc45)c3C)C2)C1
Result string: 5

====

assay: Cmax in mouse at 30 mg/kg, po measured upto 24 hrs by LC-MS/MS method; format: ADME, organism-based; set-up: dose 30 mg/kg, time < 24 hrs, route po; conditions: in vivo
Metric: Cmax (nM)
Report the value in nM with no unit label.

Query string: // Cmax lookup, key: C=CC(=O)N1CC2(CC(n3nc(-c4ccc5c(cnn5C)c4)c(-c4c(Cl)c(C)cc5[nH]ncc45)c3C)C2)C1 [OPNURASIB]
Result string: 2000

====

target: GTPase KRas (Homo sapiens, UniProt P01116, G12C); assay: Inhibition of KRAS G12C mutant in human NCI-H358 cells assessed as reduction in ERK phosphorylation incubated for 6 hrs by MSD assay
Sequence (P01116 whole entry G12C): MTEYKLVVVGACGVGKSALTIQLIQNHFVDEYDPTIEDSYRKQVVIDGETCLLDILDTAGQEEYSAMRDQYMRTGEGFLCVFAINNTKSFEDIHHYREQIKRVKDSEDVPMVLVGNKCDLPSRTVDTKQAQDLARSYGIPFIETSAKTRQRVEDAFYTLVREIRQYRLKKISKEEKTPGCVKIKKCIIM
Overview of recorded pIC50 for various compounds
# pIC50 is unitless: minus log10 of the molar concentration; print number only

C=CC(=O)N1CC2(CC(n3nc(C(C)C)c(-c4c(C)ccc5[nH]ncc45)c3C)C2)C1
5.41

Query string: What measured pIC50 goes with C=CC(=O)N1CC2(CC(n3nc(-c4ccc5cn[nH]c5c4)c(-c4c(Cl)c(C)cc5[nH]ncc45)c3C)C2)C1 ?
Result string: 7.30

Query string: For C=CC(=O)N1CC2(CC(n3nc(-c4cccnc4)c(-c4c(Cl)ccc5[nH]ncc45)c3C)C2)C1 , what is its reported pIC50?
Result string: 6.30

Query string: Can you look up the measured pIC50 of C=CC(=O)N1CC2(CC(n3nc(-c4ccc5c(cnn5CCN(C)C)c4)c(-c4c(Cl)c(C)cc5[nH]ncc45)c3C)C2)C1 for me?
Result string: 7.52

Query string: Looking for the measured pIC50 of C=CC(=O)N1CC2(CC(n3nc(-c4ccc5nn(CCN6CCOCC6)cc5c4)c(-c4c(Cl)c(C)cc5[nH]ncc45)c3C)C2)C1 , can you help?
Result string: 8.00

Query string: Query (compound): C=CC(=O)N1CC2(CC(n3nc(-c4ccc5c(c4)ncn5C)c(-c4c(Cl)c(C)cc5[nH]ncc45)c3C)C2)C1 ; field requested: pIC50
Result string: 6.85

Query string: Consider the compound C=CC(=O)N1CC2(CC(n3nc(-c4ccc5c(cnn5C)c4)c(-c4c(Cl)c(C)cc5[nH]ncc45)c3C)C2)C1 [OPNURASIB] and give its measured pIC50.
Result string: 7.70

Query string: // pIC50 lookup, key: C=CC(=O)N1CC2(CC(n3nc(-c4cccnc4)c(-c4c(Cl)c(C)cc5[nH]ncc45)c3C)C2)C1
Result string: 7.05

Query string: Name the recorded pIC50 for C=CC(=O)Nc1ccc(-n2nc(C(C)C)c(-c3c(C)ccc4[nH]ncc34)c2C)c(F)c1 .
Result string: 6.30

Query string: I have this compound here, C=CC(=O)N1CC2(CC(n3nc(C4CCCCC4)c(-c4c(Cl)ccc5[nH]ncc45)c3C)C2)C1 , and I need its recorded pIC50.
Result string: 6.15

Query string: Can you look up the measured pIC50 of C=CC(=O)Nc1ccc(-n2nc(C(C)C)c(-c3c(C)ccc4[nH]ncc34)c2C)c(C)c1 for me?
Result string: 5.82

Query string: What measured pIC50 goes with C=CC(=O)N1CC2(CC(n3nc(-c4ccc5c(cnn5CCOC)c4)c(-c4c(Cl)c(C)cc5[nH]ncc45)c3C)C2)C1 ?
Result string: 8.10

Query string: Which pIC50 value belongs to C=CC(=O)N1CC2(CC(n3nc(-c4ccc5nn(CCOC)cc5c4)c(-c4c(Cl)c(C)cc5[nH]ncc45)c3C)C2)C1 ?
Result string: 8.40

Query string: Need pIC50 of C=CC(=O)N1CC2(CC(n3nc(-c4ccccc4)c(-c4c(Cl)c(C)cc5[nH]ncc45)c3C)C2)C1 , thanks.
Result string: 7.70

Query string: So what's the measured pIC50 for this one? C=CC(=O)N1CC2(CC(n3nc(-c4ccc5[nH]ncc5c4)c(-c4c(Cl)c(C)cc5[nH]ncc45)c3C)C2)C1
Result string: 7.70

====

experiment: Cmax in Beagle dog at 15 mg/kg, po measured upto 24 hrs by LC-MS/MS method; type: ADME, organism-based, Canis lupus familiaris; parameters: time < 24 hrs, dose 15 mg/kg, route po; conditions: in vivo
Metric: Cmax (nM)
Just the number please, in nM, no unit attached.

Query string: Consider the molecule shown here: C=CC(=O)N1CC2(CC(n3nc(-c4ccc5c(cnn5C)c4)c(-c4c(Cl)c(C)cc5[nH]ncc45)c3C)C2)C1 What is its recorded Cmax?
Result string: 1100

====

test: Apparent permeability across apical to basolateral side in MDCK-MDR1 cells at 10 uM after 2 hrs by LC-MS/MS analysis; assay type: ADME, cell-based, Canis lupus familiaris; conditions: dog
Documented Papp A→B at 2 h, 10 µM across a set of compounds
State the answer as a number, implicitly in ×10⁻⁶ cm/s.

Query string: Looking for the measured Papp A→B at 2 h, 10 µM of C=CC(=O)N1CC2(CC(n3nc(-c4ccc5c(cnn5CCN(C)C)c4)c(-c4c(Cl)c(C)cc5[nH]ncc45)c3C)C2)C1 , can you help?
Result string: 0.9

Query string: # input compound: C=CC(=O)N1CC2(CC(n3nc(-c4ccc5nn(CCN6CCOCC6)cc5c4)c(-c4c(Cl)c(C)cc5[nH]ncc45)c3C)C2)C1 ; wanted: its Papp A→B at 2 h, 10 µM
Result string: 2.8

Query string: Item C=CC(=O)N1CC2(CC(n3nc(-c4ccc5nnccc5c4)c(-c4c(Cl)c(C)cc5[nH]ncc45)c3C)C2)C1 has what recorded Papp A→B at 2 h, 10 µM?
Result string: 6.1

====

assay: Tmax in mouse xenografted with human MIA PaCa-2 cells at 3 to 30 mg/kg, po; format: ADME, organism-based; settings: in vivo, dose 3-30 mg/kg
Metric: Tmax (h)
Response body: numeric value in h, unit text excluded.

Query string: What value of Tmax has been recorded for this entry: C=CC(=O)N1CC2(CC(n3nc(-c4ccc5c(cnn5C)c4)c(-c4c(Cl)c(C)cc5[nH]ncc45)c3C)C2)C1
Result string: 1

====

assay: Aqueous solubility of compound in pH 4; assay type: physicochemical; settings: aqueous medium
Metric: solubility

C=CC(=O)N1CC2(CC(n3nc(-c4ccc5c(cnn5C)c4)c(-c4c(Cl)c(C)cc5[nH]ncc45)c3C)C2)C1
10 µM
C=CC(=O)N1CC2(CC(n3nc(-c4ccc5c(cnn5CCN(C)C)c4)c(-c4c(Cl)c(C)cc5[nH]ncc45)c3C)C2)C1
850 µM

Please turn your attention to the following entry.
Query string: What does the record list as solubility for C=CC(=O)N1CC2(CC(n3nc(-c4ccc5nn(CCN6CCOCC6)cc5c4)c(-c4c(Cl)c(C)cc5[nH]ncc45)c3C)C2)C1 ?
Result string: > 1000 µM

====

Known solubility of a selection of molecules
assay: Aqueous solubility of compound in pH 6.8; type: physicochemical; details: aqueous medium
A complete answer gives the number and then names the unit.

C=CC(=O)N1CC2(CC(n3nc(-c4ccc5c(cnn5C)c4)c(-c4c(Cl)c(C)cc5[nH]ncc45)c3C)C2)C1
10 µM
C=CC(=O)N1CC2(CC(n3nc(-c4ccc5c(c4)ncn5C)c(-c4c(Cl)c(C)cc5[nH]ncc45)c3C)C2)C1
40 µM
C=CC(=O)N1CC2(CC(n3nc(-c4ccc5nnccc5c4)c(-c4c(Cl)c(C)cc5[nH]ncc45)c3C)C2)C1
10 µM
C=CC(=O)N1CC2(CC(n3nc(-c4ccccc4)c(-c4c(Cl)c(C)cc5[nH]ncc45)c3C)C2)C1
10 µM
C=CC(=O)N1CC2(CC(n3nc(-c4ccc5nn(CCOC)cc5c4)c(-c4c(Cl)c(C)cc5[nH]ncc45)c3C)C2)C1
30 µM

Query string: Requested read-out: solubility. Entry: C=CC(=O)N1CC2(CC(n3nc(-c4ccc5c(cnn5CCOC)c4)c(-c4c(Cl)c(C)cc5[nH]ncc45)c3C)C2)C1
Result string: 10 µM

Query string: Can you share its solubility? I mean this molecule: C=CC(=O)N1CC2(CC(n3nc(-c4ccc5[nH]ncc5c4)c(-c4c(Cl)c(C)cc5[nH]ncc45)c3C)C2)C1
Result string: 10 µM

Query string: Fill in the blank: the reported solubility of C=CC(=O)N1CC2(CC(n3nc(-c4ccc5nn(CCN6CCOCC6)cc5c4)c(-c4c(Cl)c(C)cc5[nH]ncc45)c3C)C2)C1 is ____.
Result string: 30 µM
